# STUDY SYSTEM: Nuclear receptor subfamily 1 group I member 2 (Homo sapiens) (UniProt O75469)
# ASSAY NAME: Human pregnane X receptor (PXR) activation by small molecules, qHTS assay (AID 1346985); also: nearly all actives have a fitted effect of over 40% in size
# SETTINGS: DPX-2 HepG2 CYP3A4-luciferase, 24 h; series mostly up to 38.3 µM
Inconclusive results are not listed. The source made the active and inactive calls. Calls follow the shape of the dose curve; as a rule, active = well fitted activation curve with a large enough effect in the repeat runs; inconclusive = weak or mixed curves; inactive = flat fitted curve, though single readings scatter.
The categories you may choose from are 1 for active, 0 for inactive

Query :: Entry CCC(Oc1ccccc1)C(=O)N[C@@H]1C(=O)N2[C@@H]1SC(C)(C)[C@@H]2C(=O)O (stereo partly specified) : call = ?
Result :: 0

----------
# ASSAY NAME: qHTS assay to identify small molecule antagonists of the glucocorticoid receptor (GR) signaling pathway - cell viability counter screen (AID 720693); also: nearly all actives have a fitted effect of over 55% in size
# SETTINGS: GR-bla HeLa viability, CellTiter-Glo luminescence, 18 h, with 5 nM dexamethasone present; series mostly up to 58.5 µM
# From the text: National Center for Advancing Translational Sciences [NCATS] NIH Chemical Genomics Center [NCGC] U.S. Environmental Protection Agency [EPA] National Institutes of Environmental Health Sciences [NIEHS] National Toxicology Program [NTP] U.S. Food and Drug Administration [FDA] The Glucocorticoid receptor (GR) is one of the members of the nuclear receptor family of ligand-dependent transcription factors. […] The activation of the reporter gene under culture conditions can be detected by fluorescence intensity. […]
Results filed as inconclusive are left out. The source made the active and inactive calls. Calls come from the whole dose curve; as a rule, active = well fitted cell-killing curve with a large enough effect in the repeat runs; inconclusive = weak or mixed curves, or effect the other way; inactive = no such curve, though single readings can be large or run the other way. Positions of bridges follow the written chain, without caps; N, C: chain ends. Non-standard residues stand in square brackets, D forms with d. Residues, ends and D or L forms follow the SMILES beside them. *: point of attachment. X2 = CC[C@H](C)CCCCC(=O)*; Dab = NCC[C@H](N)C(=O)O
The categories you may choose from are active, inactive

Look over these answered cases.
1. NCCCC[C@H](NC(=O)[C@@H]1CCCN1C(=O)[C@@H]1CSSC[C@H](N)C(=O)N[C@@H](Cc2ccccc2)C(=O)N[C@@H](Cc2ccccc2)C(=O)N[C@@H](CCC(N)=O)C(=O)N[C@@H](CC(N)=O)C(=O)N1)C(=O)NCC(N)=O : inactive
2. Nc1ncnc(Nc2ccc(Cl)cc2)n1 : inactive
3. C#C[C@]1(OC(C)=O)CC[C@H]2[C@@H]3CCC4=CC(=O)CC[C@@H]4[C@H]3CC[C@@]21C : active
4. CC[C@H](C)CCCCC(=O)N[C@@H](CCN)C(=O)N[C@H](C(=O)N[C@@H](CCN)C(=O)N[C@H]1CCNC(=O)[C@@H]([C@H](C)O)NC(=O)[C@H](CCN)NC(=O)[C@H](CCN)NC(=O)[C@H](CC(C)C)NC(=O)[C@@H](CC(C)C)NC(=O)[C@H](CCN)NC1=O)[C@@H](C)O (X2-[Dab]T[Dab][Dab][Dab][dL]L[Dab][Dab][dT]; lactam 4-C) : inactive
5. O=C(NCCNCC(O)COc1ccc(O)cc1)N1CCOCC1 (stereo not given) : inactive

Query :: Entry CC1(C)S[C@@H]2[C@H](NC(=O)C(N)c3ccccc3)C(=O)N2[C@H]1C(=O)OC1OC(=O)c2ccccc21 (stereo not given in full) : call = ?
Result :: inactive

Query :: # repeat for `C[N@+]12CCCC[C@@H]1CCC(=C(c1cccs1)c1cccs1)C2`
Result :: inactive

Query :: # repeat for `CN[C@@H]1[C@H](O[C@H]2[C@H](O[C@H]3[C@H](O)[C@@H](O)[C@H](N=C(N)N)[C@@H](O)[C@@H]3N=C(N)N)O[C@@H](C)[C@]2(O)C=O)O[C@@H](CO)[C@H](O)[C@H]1O`
Result :: inactive

Query :: # repeat for `NCCC(=O)[N-][C@@H](Cc1cnc[nH]1)C(=O)O.[Zn]`
Result :: inactive

Query :: # repeat for O=C(O)[C@@H](O)[C@H](O)[C@H](O)[C@@H](O)C(=O)O (tested in a mixture with another compound)
Result :: inactive

Query :: # repeat for `CCN(CC)CCC(=O)N1c2ccccc2Sc2ccc(Cl)cc21`
Result :: inactive

Query :: # repeat for `CN1CCC(OC(=O)C(Oc2ccc(Cl)cc2)Oc2ccc(Cl)cc2)CC1`
Result :: inactive

Query :: # repeat for `O=C(O)c1cc(O)c2c(c1)[O][Bi][O]2`
Result :: inactive

Query :: # repeat for `N[C@H](CC(=O)O)C(=O)O`
Result :: inactive

Query :: # repeat for CC(Oc1ccccc1)C(=O)N[C@@H]1C(=O)N2[C@@H]1SC(C)(C)[C@@H]2C(=O)O (stereo not given in full)
Result :: inactive
